Cited source: patent US9796719B2

Below, each entry is listed with its recorded pIC50.
- target: hENPP2 (UniProtKB/SwissProt Sequence ref Q13822) (Homo sapiens (Human), UniProt Q13822)
- methodDescription: LPC hENPP2 assay (choline release, LPC as substrate)
- Type: biochemical
pIC50: −log10 of the molar value.

Sample records with pIC50:
compound: CCc1nc2cnc(N3CCN(CC(=O)N4CC(O)C4)CC3)cn2c1N(C)c1nc(-c2ccc(F)cc2)c(C#N)s1
measuredQuantity: pIC50
result: 6.30 to 7.00
//
compound: CCc1nc2ccc(N3CCN(CC(=O)N4CC(O)C4)CC3)nn2c1N(C)c1nc(-c2ccc(F)cc2)c(C#N)s1
measuredQuantity: pIC50
result: 7.00 to 11.00
//
compound: CCc1nc2ccc(N3CCC4(CCNC4)C3)nn2c1N(C)c1nc(-c2ccc(F)cc2)c(C#N)s1 (stereo not drawn)
measuredQuantity: pIC50
result: 6.30 to 7.00
//
compound: CCc1nc2ccc(N3CCC(O)C3)nn2c1N(C)c1nc(-c2ccc(F)cc2)c(C#N)s1 (stereo not drawn)
measuredQuantity: pIC50
result: 6.30 to 7.00
//
compound: CCc1nc2ccc(N3CCN(S(C)(=O)=O)[C@H](COC)C3)nn2c1N(C)c1nc(-c2ccc(F)cc2)cs1
measuredQuantity: pIC50
result: < 6.00

-- ask pIC50 lookup needed for CCc1nc2ccc(C3CCN(CC(=O)N(C)C)CC3)nn2c1N(C)c1nc(-c2ccc(F)cc2)cs1 , thanks.
-- reply 6.00 to 6.30

-- ask Any idea what its pIC50 is? The compound is CCc1nc2ccc(N3CCC(N4CCOCC4)C3)nn2c1N(C)c1nc(-c2ccc(F)cc2)cs1 (stereo not drawn)
-- reply 6.30 to 7.00

-- ask Field request: pIC50 | item: CCc1nc2ccc(N3CCN4C(=O)OC[C@@H]4C3)nn2c1N(C)c1nc(-c2ccc(F)cc2)cs1
-- reply < 6.00

-- ask So what does the record say about pIC50 for CCc1nc2ccc(C3CCN(CC(=O)N4CC(O)C4)CC3)nn2c1N(C)c1ccc(C#N)c(-c2ccc(F)cc2)n1 ?
-- reply 6.30 to 7.00

-- ask # get_value(readout='pIC50', item= CCc1nc2ccc(N3CCN(C4CCN(Cc5ccc(OC)cc5)C4=O)CC3)nn2c1N(C)c1nc(-c2ccc(F)cc2)cs1 (stereo not drawn) )
-- reply 6.00 to 6.30
